Reference for the values: the supplement of paper PMC10567573

Reported protein stability index values are given for each entry in this list.
B1: PRPH (parent)
chain: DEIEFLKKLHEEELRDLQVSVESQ

# Variants of: B1
# assay.comment: protein stability index of a GFP-peptide fusion (GPS, HEK-293T) (PSI 1-6); higher = more stable;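 further: lentivirally expressed fusions sorted by FACS into six bins by GFP to DsRed ratio, PSI derived from sequencing read proportions per bin multiplied by bin number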
# condition.info: c terminus: a fixed tail appended

mutation.notation: V19P
recorded.value: 4.93
--
mutation.notation: E4N
recorded.value: 4.91

Qu. Dear colleague, I am looking for the recorded protein stability index of the following variant: `E22D`
Ans. 4.99

Qu. Dear colleague, I am looking for the recorded protein stability index of the following variant: `D1H`
Ans. 4.99

Qu. Dear colleague, I am looking for the recorded protein stability index of the following variant: `L9C`
Ans. 4.9
